molecular target: Protein translocase subunit SecA (Escherichia coli (strain K12)); assay: Assay to Identify E. coli SecA ATPase Inhibitors; format: functional; design: scale not given: direction of the effect not stated beside the values; settings: 30 µM
Measured potencies and affinities stand elsewhere.
For each record, write down the corresponding Percent Effect.
Give a bare numeral; the unit % is implied.

q: Record NC(=O)CN1CCCN(C(=O)Cc2ccc3c(c2)OCO3)CC1 : what is its Percent Effect with Protein translocase subunit SecA (Escherichia coli (strain K12))?
a: -0.196

q: Record COc1cc(CNCC(O)c2ccc(F)c(F)c2)cc2c1OCO2 (stereo unspecified) : what is its Percent Effect with Protein translocase subunit SecA (Escherichia coli (strain K12))?
a: -2.52

q: Record O=C1CC[C@H]2[C@H](CCN2Cc2ccccn2)N1CC1CCOCC1 : what is its Percent Effect with Protein translocase subunit SecA (Escherichia coli (strain K12))?
a: -3.55

q: Record O=C1CO[C@@H]2CN(Cc3cccs3)C[C@H]2N1Cc1ccncc1 : what is its Percent Effect with Protein translocase subunit SecA (Escherichia coli (strain K12))?
a: -2.47

q: Record CCCN1C(=O)CC2(CCCNC2)C1=O (stereo unspecified) : what is its Percent Effect with Protein translocase subunit SecA (Escherichia coli (strain K12))?
a: -4.19

q: Record Cc1nc(C)c(CC(=O)N2C[C@@H]3CC[C@H](C2)N(CC2CCC2)C3)c(=O)[nH]1 : what is its Percent Effect with Protein translocase subunit SecA (Escherichia coli (strain K12))?
a: -2.23

q: Record O=C1[C@H]2CN(Cc3ccoc3)C[C@H]2CN1Cc1ccncc1 : what is its Percent Effect with Protein translocase subunit SecA (Escherichia coli (strain K12))?
a: -3.37

q: Record Cc1nnc(N2CCCC3(CN(Cc4ccncc4)CCO3)C2)o1 (stereo unspecified) : what is its Percent Effect with Protein translocase subunit SecA (Escherichia coli (strain K12))?
a: 3.96

q: Record Cc1noc(C)c1CN1CCCC2(CCN(C(=O)CC3CC3)C2)C1 (stereo unspecified) : what is its Percent Effect with Protein translocase subunit SecA (Escherichia coli (strain K12))?
a: -8.86

q: Record CC(C)c1nccc([C@H]2C[C@@H]3CCN(Cc4ccco4)C[C@H]3O2)n1 : what is its Percent Effect with Protein translocase subunit SecA (Escherichia coli (strain K12))?
a: -6.35

q: Record CCc1cnc(N2CC3(CCN(Cc4ccsc4)C3)C2)nc1 : what is its Percent Effect with Protein translocase subunit SecA (Escherichia coli (strain K12))?
a: -5.86
